Here the recorded growth is given for each entry.
test system: SK-MEL-5 melanoma; assay: NCI-60 one-dose screen, 48 h (100 = growth as untreated, 0 = no growth, -100 = all killed); conditions: 10 µM
The panel holds about 83,000 compounds, 20% with a hit somewhere; the sample as a whole holds those more often.

MOLECULE | UNIT_DESCRIPTOR | growth
CC(=O)Nc1ccc(Sc2ccc(NC(C)=O)cc2)cc1 | % | 105
CCCCCCCCCCCCCCCC(=O)N1CCN(C)CC1 | % | 81.7
Cc1cn(C(=O)/C(Cl)=C(/Cl)C(=O)O)c2ccccc12 | % | 104
O=[N+]([O-])c1ccc(S(=O)(=O)OCCCCOS(=O)(=O)c2ccc([N+](=O)[O-])cc2)cc1 | % | 100
O=C(NCCCl)c1cc(Cl)cc(Cl)c1 | % | 101
COc1ccc(C(=O)/C=C/c2cc(-c3ccc(OC)c(OC)c3)n[nH]2)cc1OC | % | 4.15
COc1cc(-c2nc3ccccc3[nH]2)ccc1OCC(=O)N=Nc1c(O)[nH]c2ccccc12 | % | 68.9
CCOC(=O)Nc1ccc2c(c1)C(=O)N(CC)c1ccccc1O2 | % | -28
O=C(Nc1cccc(Cl)c1)OCC(COC(=O)Nc1cccc(Cl)c1)(COC(=O)Nc1cccc(Cl)c1)[N+](=O)[O-] | % | 44.2
COc1ccc(-c2nc(-c3nc4ccc(C)cc4[nH]3)c3ccccn23)cc1 | % | 39.9
COC(=O)[C@]12CC[C@@H](C)[C@H](C)[C@@H]1C1=CC[C@@H]3[C@@]4(C)C/C(=N\O)[C@H](O)[C@@]5(C)COC(=C45)C[C@@]3(C)[C@]1(C)CC2 | % | -97.7
CCc1cc2n(n1)-c1ncc(C(=O)OC)cc1Oc1ccccc1-2 | % | 96.2
CCCCCCCCCCCCCC[n+]1ccc(C)cc1 | % | -96.3
COc1ccc(-c2nsc3c2NC(=O)CC3c2cccc(Cl)c2)cc1 (stereo unspecified) | % | 23
CCOc1ccc2c(c1)CC[C@@H]1[C@@H]2CC[C@]2(C)[C@@H](O)[C@@H](O)C[C@@H]12 | % | 96.8
Cc1ccc(C)c2c1sc1nc3n[nH]c(N)c3c(=N)n12 | % | 99.3
COc1ccc(-c2oncc2-c2cc(OC)c3c(c2)OCO3)cc1 | % | 17.9
CCOC(=O)c1ccc(N(C=O)CCC(=O)CCl)cc1 | % | 2.68
Nc1ccc(Sc2ccc3c4c2cccc4c(=O)n2c4ccccc4nc32)cc1 | % | 39.4
COc1ccc(-c2nc(-c3ccccc3)c(-c3ccccc3)[nH]2)cc1OC1CCCC1 | % | 67.7
COc1ccc(-c2nsc3c2NC(=O)CC3c2ccc(Cl)cc2)cc1 (stereo unspecified) | % | 81.8
C[C@@H]1C(=O)N(C[C@H](Cc2ccccc2)NC(=O)OCc2ccccc2)[C@]1(Cc1ccccc1)C(=O)OCc1ccccc1 | % | 13.2
CC(=O)O[C@H]1CC[C@@]2(C)[C@@H](CC[C@@H]3[C@@H]2CC[C@]2(C)C=C(C=O)C[C@@H]32)C1 | % | 75.7
c1ccc(CC(NCCNC(Cc2ccccc2)c2ccccc2)c2ccccc2)cc1 (stereo unspecified) | % | -52.3
CCOc1ccc(-n2cc(-c3ccc(N(C)C)cc3)[n+]3c2CCCCC3)cc1 | % | -92.4
COc1ccc(-c2cc(=O)n(-c3nc4ccccc4[nH]3)[nH]2)cc1OC | % | 62.7
CC(=O)n1nc(C(=O)OC(C)(C)C)c2cc(F)c(F)cc21 | % | 87
COc1ccc(-c2nnc(N3CCN(C(=O)CN4CCN(c5ccc(Cl)cc5)CC4)CC3)nc2-c2ccc(OC)cc2)cc1 | % | 51
CCOc1nc(-c2ccccc2)cc2c(O)c(C(=O)NCCCO)[nH]c(=O)c12 | % | 88.8
COc1ccc(-c2n/c(=C\c3c(O)[nH]c4ccccc34)cc3c2=Nc2ccccc2-3)cc1 | % | 70
COc1cccc2c1O/C(=C\c1ccc([N+](=O)[O-])s1)C2=O | % | 73.7
CCOC(=O)c1sc(Nc2ncccn2)nc1-c1ccccn1 | % | 83.2
C=CCOc1ccc2c(c1)CC[C@@H]1[C@@H]2CC[C@]2(C)C(=O)/C(=N/O)C[C@@H]12 | % | 77.4
CCCCCCCC/C=C/CCCCCCCCC1=NCCN1CCO | % | 85.6
C[N+]1=C(/C=C/c2ccc(I)cc2)C(C)(C)c2ccccc21 | % | 90.4
CC(C)C[C@H](NC(=O)CCn1ccc2ccccc2c1=O)B(O)O | % | 29.1
CC1(C)Cc2c(cn(Cc3ccccc3)c2-c2ccccc2)-c2oncc21 | % | 83.5
Clc1cc(Cl)c(Cl)c(-c2nc(-c3cccnc3)cs2)c1 | % | 93.9
O=C(O)c1ccc(CNc2ccc(C(=O)CCl)cc2)cc1 | % | 97.9
CS(=O)(=O)Nc1ccc(Nc2c3ccccc3nc3cc(Cl)ccc23)cc1 | % | 18.6
COC(=O)[C@]12CC[C@@H](C)[C@H](C)[C@@H]1C1=CC[C@@H]3[C@@]4(C)CC(=O)[C@H](O)[C@@]5(C)COC(=C45)C[C@@]3(C)[C@]1(C)CC2 | % | -97.2

* * *

System: OVCAR-3 ovarian
Experiment: NCI-60 one-dose screen, 48 h (100 = growth as untreated, 0 = no growth, -100 = all killed)
Details: 10 µM
Experimental: Growth inhibition of the OVCAR-3 human tumor cell line is measured as a screen for anti-cancer activity. Cells are grown in 96 well plates and exposed to the test compound for 48 hours. Compounds are tested at a single concentration, which is 10^-5 M for most compounds. The reported endpoint is percent growth (GI% or GIPRCNT), where numbers from 0 - 100% represent growth inhibition, and numbers from -100% - 0 represent cell death. For example, a value of 40 represents 60% growth inhibition. […]
Compounds without any hit were thinned out: in the full panel of roughly 83,000, 20% have a hit.
Here the recorded growth is given for each entry.
MEASURED_QUANTITY: growth (%)

MOLECULE | MEASURED_QUANTITY | ASSAY_RESULT
CCN(CCCNC(=O)Cc1cc(=O)oc2cc(N(C)C)ccc12)CCNc1ccnc2cc(Cl)ccc12 | growth | 106
CNC(=S)Sc1ccc([N+](=O)[O-])cc1[N+](=O)[O-] | growth | 36.3
FC(F)(F)c1ccc(-c2cnc(Cl)nc2NC2CCCCCC2)cc1 | growth | 3.4
CC1(C)CCc2cc(-c3ccn(S(=O)(=O)c4ccc(Cl)cc4)n3)ccc2O1 | growth | 84
Nc1nc2c(nnn2C2CC(O)C(CO)O2)c(=O)[nH]1 (stereo not given) | growth | 40.8

* * *

Test system: HT29 colon
Experiment: NCI-60 one-dose screen, 48 h
Conditions: 10 µM
Method: Growth inhibition of the HT29 human tumor cell line is measured as a screen for anti-cancer activity. Cells are grown in 96 well plates and exposed to the test compound for 48 hours. Compounds are tested at a single concentration, which is 10^-5 M for most compounds. The reported endpoint is percent growth (GI% or GIPRCNT), where numbers from 0 - 100% represent growth inhibition, and numbers from -100% - 0 represent cell death. For example, a value of 40 represents 60% growth inhibition. […]
This is part of a sample that, as a whole, favours compounds with a hit. Of some 83,000 tested, about 20% had one in any assay. The source made the active and inactive calls. How the source made its calls: active means growth percent below 10; inactive means the rest.
Classes used: 1 for active, -1 for inactive

COMPOUND | ASSIGNED_CATEGORY
N#Cc1ncc(-c2cc(F)ccc2F)c(NC2CCCCCC2)n1 | -1
N=C(N)c1ccc(-c2ccc(-c3ccccc3)s2)s1 | 1
COc1ccccc1CNCCCN1C(=O)c2ccc3c4c(ccc(c24)C1=O)C(=O)N(CCCNCCNCCCN)C3=O | 1
COc1ccc(/C=C(\c2cc(OC)c(OC)c(OC)c2)c2nnc(-c3cccs3)o2)cc1 | -1
COc1ccc(-c2cc(/C=C3\C(=O)Nc4cc(Cl)ccc43)[nH]n2)cc1 | 1
CC(CNC(Cc1ccccc1)c1ccccc1)NC(Cc1ccccc1)c1ccccc1 (stereo not given) | 1
COc1ccc(-c2nc3sc(-c4ccccc4)c(-c4ccccc4)n3c2/C=C/c2ccc(F)cc2)cc1 | -1
CCCn1c(=O)c2c(nc(-c3cccc(OCCCCl)c3)n2C)n(CCC)c1=O | -1
O=C(C=P(c1ccccc1)(c1ccccc1)c1ccccc1)c1ccc(Br)cc1 | -1
COc1ccc(OC)c([N+](=O)[O-])c1C=O | -1

* * *

tested on: HCT-116 colon; assay: NCI-60 one-dose screen, 48 h (100 = growth as untreated, 0 = no growth, -100 = all killed); settings: 10 µM
Compounds without any hit were thinned out: in the full panel of roughly 83,000, 20% have a hit. Activity calls are given as the source filed them. The calls were made as follows: active = growth percent below 10; inactive = the rest.
Here the recorded growth is given for each entry.

MOLECULE | growth
Cc1cc(Cl)ccc1Nc1nc(C(F)(F)F)ccc1C(=O)N/N=C/c1ccccc1Cl | 7.23% (active)
C#CCNCCCN1C(=O)c2ccc3c4c(ccc(c24)C1=O)C(=O)N(CCCNCC#C)C3=O | -25% (active)
COc1cc(Cn2c(-c3ccccc3)cc3c2-c2oncc2CC3)cc(OC)c1 | 6.79% (active)
COc1cccc2c1C(=O)c1c(O)c3c(c(O)c1C2=O)C[C@@](O)(C(=O)COC(=O)c1cccnc1)C[C@@H]3OC1CC(N)C(O)C(C)O1 (stereo not given in full) | 6.26% (active)
COc1ccc(C(=O)/C=C/c2cc(-c3ccc4c(c3)OCO4)n[nH]2)cc1OC | 18.4% (inactive)
CS(=O)(=O)Nc1ccc([N+](=O)[O-])cc1Oc1ccccc1 | 100% (inactive)
CCCC(C)c1ccc(OCCCCCCN2CCNCC2)cc1 (stereo not given) | -6% (active)
CCN(CC)CC(O)Cc1ccc(OC)cc1 (stereo not given) | 111% (inactive)
CNC(=O)c1cc(Oc2ccc(NC(=O)Nc3ccc(Cl)c(OC(C)C)c3)c(F)c2)ccn1 | 30.4% (inactive)
COc1cc(-c2cc(-c3ccc(C)cc3)nc3nc(N)[nH]c(=O)c23)ccc1Oc1ccnc2cc(Cl)ccc12 | 88.8% (inactive)
COc1c(-c2c3sc(=O)[nH]c3nc3c2c(=O)[nH]n3C(C)C)cc2c(c1OC)OCO2 | 101% (inactive)
N=C(N)c1ccc(-c2ccc(-c3cccs3)s2)nc1 | 18.5% (inactive)
COc1ccc2c(c1)/C(=C/c1cc(OC)c(OC)c(OC)c1)C(=O)N2C | 19.3% (inactive)
COc1ccc(-c2ccc(-c3ccc(C(=N)N)c(F)c3)s2)cc1 | -82.6% (active)
C=C[C@]1(C)C=C2C(=O)[C@@]3(O)OC(=O)[C@@]4(CCCC(C)(C)[C@H]34)[C@@]2(O)CC1 | -93.4% (active)
C=CCN1C(=O)/C(=C\c2ccc3c(c2)CCC3)SC1=S | 99.8% (inactive)
COc1ccc(-n2nnc3c(sc4ccccc43)c2=O)cc1 | 5.85% (active)
CCCc1ccnc(NS(=O)(=O)c2ccc(N)cc2)n1 | 66.1% (inactive)
CC(C)C[C@H](NC(=O)CCn1ccc2ccccc2c1=O)B(O)O | 16.9% (inactive)
COc1ccccc1CNCCCN1C(=O)c2ccc3c4c(ccc(c24)C1=O)C(=O)N(CCCNCCNCCCN)C3=O | 1.05% (active)
